Tested on: L1210 leukemia ip in BDF1 mice, survival T/C
Assay: NCI In Vivo Anticancer Drug Screen. Data for tumor model L1210 Leukemia (intraperitoneal) in B6D2F1 (BDF1) mice
Conditions: endpoint: mean survival time; dose: 100.0 mg/kg/injection; schedule: Q04DX003 (ip); vehicle: saline with Tween-80; higher = longer survival
Toxic doses and inconclusive results are not listed.
Give measured T/C for each item. Keep answers brief.

Query: I am curious: what T/C value has been reported for CC(=O)NC(CSCc1c2ccccc2c(C)c2ccccc12)C(=O)O (configuration not stated) ?
Response: 94 % of control

Query: Proceed to `[O-]/[N+](=N/O)c1ccc(Cl)cc1`
Response: 92 % of control

Query: Proceed to CCCC(C)C(C(=O)O)c1ccccc1 (configuration not stated)
Response: 117 % of control

Query: Proceed to O=C1OC(OC(=O)c2ccccc2)C(Nc2ccccc2)=C1Br (configuration not stated)
Response: 91 % of control

Query: Proceed to `CCOC(=O)CCN(CC(=O)OCC)C(C)C`
Response: 100 % of control

Query: Proceed to CC1CCC(C)C1NC1=NCCO1 (configuration not stated)
Response: 87 % of control

Query: Proceed to CCOC(=O)C(OCc1ccccc1)(C(=O)O)C(C)C (configuration not stated)
Response: 98 % of control

Query: Proceed to `CSCCNC(=O)CS(=O)(=O)c1ccc(N)cc1`
Response: 97 % of control

Query: Proceed to `Cc1cc2ccc(OC(=O)c3ccc(N=C(N)N)cc3)cc2oc1=O`
Response: 97 % of control

Query: Proceed to `CC(C)c1nc(-c2ccccc2)c(-c2ccccc2)[nH]1`
Response: 93 % of control

Query: Proceed to `O=C1C(Cl)=C(Nc2ccccc2)C(=O)C(Cl)=C1Nc1ccccc1`
Response: 88 % of control

Query: Proceed to `COC(OC)c1[nH]c(=S)[nH]c(=O)c1CCCc1ccccc1`
Response: 100 % of control

Query: Proceed to `O=C(/C=C/C(=O)N1CCOCC1)N1CCOCC1`
Response: 100 % of control

Query: Proceed to `COC(=O)c1ccccc1C1(c2ccccc2C(=O)OC)OC(=O)c2ccccc21`
Response: 98 % of control

Query: Proceed to `CS/C(N)=N\C(=O)N(C)C`
Response: 97 % of control

Query: Proceed to `COC(=O)/C(C#N)=C/c1c[nH]c2ccccc12`
Response: 101 % of control

Query: Proceed to `C#CCOP(=O)(C#CC)OCC#C`
Response: 95 % of control

Query: Proceed to `NC(=O)O/N=C/c1ccccn1`
Response: 105 % of control

Query: Proceed to O=C1OC(=O)C2C3C=CC(C3)C12 (configuration not stated)
Response: 98 % of control

Query: Proceed to `Cc1cc(C)[nH]c(=O)c1`
Response: 109 % of control

Query: Proceed to `CN(C)C(=S)OCC(C)(C)C`
Response: 113 % of control

Query: Proceed to `BrC(Br)(Br)c1ccc2ccccc2n1`
Response: 93 % of control

Query: Proceed to CC(C)CC(NC(=O)CNC(=O)OCc1ccccc1)C(=O)O (configuration not stated)
Response: 101 % of control

Query: Proceed to `O=[N+]([O-])c1ccc2c(c1)c(-c1cc(Cl)cc(Cl)c1)nc1ccccc12`
Response: 93 % of control

Query: Proceed to `CCOC(=O)Nc1cc2n[nH]nc2c(NC(c2ccccc2)c2ccccc2)n1`
Response: 94 % of control

Query: Proceed to `O=C1C(Br)=Cc2cccc3cccc1c23`
Response: 97 % of control

Query: Proceed to `NNc1nnc(Cl)cc1N`
Response: 113 % of control
